# maps each entry to its self-cleavage
B1: HDV Ribozyme (parent)
chain: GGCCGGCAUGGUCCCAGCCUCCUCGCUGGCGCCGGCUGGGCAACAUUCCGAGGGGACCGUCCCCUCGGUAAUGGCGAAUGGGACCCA

Variants of: B1
assay-comment: self-cleavage, relative activity (ratio to wild type); higher = more cleavage; co-transcriptional
No unit in the answer, only the number.

Answered cases to consult:
C30A A77U ... 0.0354
U37C A43C ... 0.308
C63U G76C ... 0.997

Pending variant:
Just so you know, measured self-cleavage for U27C C44A came out at 0.447
